- target_of_assay: human CD33 F21L (human, UniProt P20138 18-364)
- Sequence (P20138 18-364 F21L limits assumed): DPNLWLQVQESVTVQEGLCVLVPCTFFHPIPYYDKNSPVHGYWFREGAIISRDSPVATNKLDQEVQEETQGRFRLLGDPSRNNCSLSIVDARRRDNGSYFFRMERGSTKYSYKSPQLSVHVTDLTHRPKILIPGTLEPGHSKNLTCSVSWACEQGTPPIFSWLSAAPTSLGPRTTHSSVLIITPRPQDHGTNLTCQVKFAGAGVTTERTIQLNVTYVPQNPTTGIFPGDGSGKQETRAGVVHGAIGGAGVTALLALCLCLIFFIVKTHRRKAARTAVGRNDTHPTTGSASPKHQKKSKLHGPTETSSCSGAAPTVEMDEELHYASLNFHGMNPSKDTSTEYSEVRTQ
- procedure_text: flow cytometry, mutant on cells, IgG
measure: Mean % WT Binding

[[record]]
binder = "Refmab #4 (antibody, human IgG1, V domains shown, Tested in IgG format; human IgG1 Fc silent (PG-LALA)) VH: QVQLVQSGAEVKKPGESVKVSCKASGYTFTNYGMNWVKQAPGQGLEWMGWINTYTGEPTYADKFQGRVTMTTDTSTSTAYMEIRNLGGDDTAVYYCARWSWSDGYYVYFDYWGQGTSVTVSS VL: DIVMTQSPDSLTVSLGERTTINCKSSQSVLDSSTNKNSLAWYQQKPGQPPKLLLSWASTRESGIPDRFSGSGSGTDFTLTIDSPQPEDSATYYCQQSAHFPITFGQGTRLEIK"
reported_measurement = "114 % WT binding"

[[record]]
binder = "Refmab #2 (antibody, human IgG1, V domains shown, Tested in IgG format; human IgG1 Fc silent (PG-LALA)) VH: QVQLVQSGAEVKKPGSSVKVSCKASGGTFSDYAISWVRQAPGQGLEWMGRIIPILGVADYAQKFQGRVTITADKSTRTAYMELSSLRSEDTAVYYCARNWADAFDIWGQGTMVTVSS VL: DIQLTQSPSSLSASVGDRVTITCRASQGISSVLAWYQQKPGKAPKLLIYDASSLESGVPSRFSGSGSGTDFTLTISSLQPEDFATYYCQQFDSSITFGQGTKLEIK"
reported_measurement = "120 % WT binding"

[[record]]
binder = "Refmab #1 (antibody, human IgG1, V domains shown, Tested in IgG format; human IgG1 (Absolute Antibody hP67.6, Cat. No. Ab00283-10.0); also called hP67.6) VH: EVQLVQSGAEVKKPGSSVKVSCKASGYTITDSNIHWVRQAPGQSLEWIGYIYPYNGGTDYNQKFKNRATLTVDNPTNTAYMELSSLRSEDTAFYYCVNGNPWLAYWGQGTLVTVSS VL: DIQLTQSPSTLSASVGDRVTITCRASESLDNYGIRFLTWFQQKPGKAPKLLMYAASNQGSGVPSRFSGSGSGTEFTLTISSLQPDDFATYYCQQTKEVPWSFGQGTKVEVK"
reported_measurement = "4.7 % WT binding"

[[record]]
binder = "Refmab #3 (antibody, human IgG1, V domains shown, Tested in IgG format; human IgG1 Fc silent (PG-LALA)) VH: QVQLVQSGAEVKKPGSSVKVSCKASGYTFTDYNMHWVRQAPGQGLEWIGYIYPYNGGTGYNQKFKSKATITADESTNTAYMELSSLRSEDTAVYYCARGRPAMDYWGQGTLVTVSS VL: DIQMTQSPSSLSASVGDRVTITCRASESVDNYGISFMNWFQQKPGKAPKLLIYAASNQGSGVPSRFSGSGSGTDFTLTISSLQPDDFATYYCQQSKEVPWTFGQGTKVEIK"
reported_measurement = "1 % WT binding"

